I'd appreciate it if you could supply activation values for the items below.
- TEST PROTOCOL: frataxin promoter-driven luciferase activation – cell-based, luminescence, HEK293 lucGAA850, triplicate, confirmation (AID 588351);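 further: 0% = DMSO wells and 100% = 10 µM SAHA wells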
- COND: HEK293 lucGAA850 FXN promoter luciferase reporter, 24 h; at 6 µM; hits give high values; 100% = activation by SAHA
About 1,600 (84%) of roughly 1,900 compounds were called active. The set was probably picked from earlier hits. The list is a sample of the results.
The reply should contain only the number, in %.

# compound "Cc1cc(C)nc(S/C=C/C(=O)c2ccccc2)n1" ; its activation = -19

# compound CCc1ccc(N(C(=O)c2csnn2)C(C(=O)NC2CCCCC2)c2ccncc2)cc1 (stereo unspecified) ; its activation = 12.1

# compound CC1(C(=O)N/N=C/c2cc3c(cc2Br)OCO3)CC1(Br)Br (stereo unspecified) ; its activation = 15.3

# compound "Cc1cc(C(=O)N/N=C\C(Br)=C\c2ccccc2)c(C)o1" ; its activation = 26.2

# compound O=C(CC1NCCc2ccccc21)Nc1cccc(Cl)c1 (stereo unspecified) ; its activation = 26.7

# compound "CC(C)c1cc(C(=O)N/N=C/C(Br)=C/c2ccccc2)n[nH]1" ; its activation = 15.8
